Quick record: Ki, cannabinoid CB1 (Homo sapiens).

Check out these entries, answers already filled in.
CC(O)(CN1CCN(c2ccc(Cl)cc2Cl)[C@H](c2ccc(Cl)cc2)C1)C1CCN(S(=O)(=O)C2CC2)CC1 (some centres unmarked) [Example 1091]
0.2 to 100 nM
COc1cccc([C@@H]2CNCCN2c2ccc(C#N)cc2Cl)c1 [Example 813b]
≥ 900 nM
CC(O)(CN1CCN(c2ccc(Cl)cc2Cl)[C@H](c2ccc(Cl)cc2)C1)C(=O)O (some centres unmarked) [Example 877b]
≥ 900 nM

Go through the list and state Ki for each entry.
1. OCc1ccc(N2CCN(Cc3ccccc3)C[C@H]2c2ccc(Cl)cc2)cc1 [Example 824]
2. N#Cc1ccc(N2CCNC[C@H]2c2ccc(Cl)cc2)nc1 [Example 826b]
3. CC(C)(C)CCN1CCC(C(C)(O)CN2CCN(c3ccc(Cl)cc3Cl)[C@H](c3ccc(Cl)cc3)C2)CC1 (some centres unmarked) [Example 1089]
4. COc1ccc(N2CCNC[C@H]2c2ccc(F)cc2)c(C#N)c1 [Example 826e]
5. CC(C)(C)OC(=O)N[C@@H](C(=O)N1CCN(c2ccc(Cl)cc2Cl)[C@H](c2ccc(Cl)cc2)C1)c1ccc(Cl)cc1 [Example 1167a]

OUTPUT:
["≥ 900 nM", "≥ 900 nM", "~873 nM", "≥ 900 nM", "≥ 900 nM"]
